This collection of values is drawn from patent US6482849B1.

Target: α4β1 integrin (Jurkat cell adhesion to immobilized CS-1 derived peptide CLHPGEILDVPST) (Homo sapiens, UniProt P05556+P13612)
Construct: 100 μl of Jurkat cells (2.5×10^6 cells/ml) in DMEM plus BSA; endogenous in cells
Sequence (P13612 34-1032): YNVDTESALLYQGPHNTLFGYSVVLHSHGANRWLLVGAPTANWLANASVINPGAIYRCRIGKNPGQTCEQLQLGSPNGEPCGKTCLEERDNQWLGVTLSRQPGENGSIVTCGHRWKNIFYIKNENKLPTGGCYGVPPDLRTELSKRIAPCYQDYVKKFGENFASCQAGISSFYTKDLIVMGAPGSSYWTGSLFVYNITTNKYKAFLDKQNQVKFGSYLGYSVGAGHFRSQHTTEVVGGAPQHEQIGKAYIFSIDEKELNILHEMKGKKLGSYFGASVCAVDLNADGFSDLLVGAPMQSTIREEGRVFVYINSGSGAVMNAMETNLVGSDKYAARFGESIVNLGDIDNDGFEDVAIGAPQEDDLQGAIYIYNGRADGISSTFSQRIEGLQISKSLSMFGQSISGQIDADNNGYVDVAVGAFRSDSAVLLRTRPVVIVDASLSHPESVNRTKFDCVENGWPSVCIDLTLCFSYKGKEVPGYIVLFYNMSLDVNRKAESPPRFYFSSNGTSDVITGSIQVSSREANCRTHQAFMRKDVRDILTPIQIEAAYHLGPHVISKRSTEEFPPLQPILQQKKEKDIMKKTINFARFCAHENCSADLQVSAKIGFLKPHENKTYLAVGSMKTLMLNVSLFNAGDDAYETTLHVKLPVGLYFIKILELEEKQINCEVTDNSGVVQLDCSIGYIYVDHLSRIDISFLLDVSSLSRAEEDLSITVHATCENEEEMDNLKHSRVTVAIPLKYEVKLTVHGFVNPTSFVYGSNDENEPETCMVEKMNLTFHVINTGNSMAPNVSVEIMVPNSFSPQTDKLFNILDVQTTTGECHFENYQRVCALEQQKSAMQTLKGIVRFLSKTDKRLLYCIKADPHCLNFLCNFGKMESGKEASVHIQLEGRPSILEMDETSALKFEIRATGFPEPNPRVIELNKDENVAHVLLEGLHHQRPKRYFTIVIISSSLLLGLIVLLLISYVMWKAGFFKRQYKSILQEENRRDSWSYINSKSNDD
Sequence (P05556 21-798): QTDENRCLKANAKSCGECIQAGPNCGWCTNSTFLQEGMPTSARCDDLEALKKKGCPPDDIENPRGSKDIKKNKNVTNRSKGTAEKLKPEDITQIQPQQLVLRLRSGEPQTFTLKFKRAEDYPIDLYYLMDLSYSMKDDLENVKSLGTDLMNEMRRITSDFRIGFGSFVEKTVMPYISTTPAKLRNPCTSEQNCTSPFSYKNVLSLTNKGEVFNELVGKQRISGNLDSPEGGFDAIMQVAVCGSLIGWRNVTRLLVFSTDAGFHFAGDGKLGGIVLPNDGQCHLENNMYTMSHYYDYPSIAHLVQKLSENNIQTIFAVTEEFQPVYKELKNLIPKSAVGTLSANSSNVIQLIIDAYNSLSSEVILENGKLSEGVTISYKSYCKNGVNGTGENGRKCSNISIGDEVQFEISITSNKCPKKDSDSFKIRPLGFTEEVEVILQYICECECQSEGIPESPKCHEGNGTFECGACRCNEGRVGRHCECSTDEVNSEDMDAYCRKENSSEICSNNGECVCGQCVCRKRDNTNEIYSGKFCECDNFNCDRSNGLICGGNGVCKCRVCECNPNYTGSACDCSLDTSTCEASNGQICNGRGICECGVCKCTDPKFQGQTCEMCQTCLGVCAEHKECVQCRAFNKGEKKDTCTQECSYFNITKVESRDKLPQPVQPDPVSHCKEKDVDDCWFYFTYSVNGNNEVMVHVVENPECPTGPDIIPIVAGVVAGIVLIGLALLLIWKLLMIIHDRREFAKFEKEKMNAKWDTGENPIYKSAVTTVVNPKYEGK
Assay: Jurkat-CS-1 Assay
Settings: Jurkat cells on CS-1 peptide coated plates
metricName: IC50

Incoming: Entry `CC1(C)[C@@H](C(=O)N[C@@H](Cc2ccc(NC(=O)c3c(Cl)cc(Cl)cc3Cl)cc2)C(=O)O)CC[C@@]1(C)C(=O)O` : reported IC50 = ?
Outgoing: ≤ 80 nM

Incoming: Requested read-out: IC50. Entry: `CC1(C)[C@@H](C(=O)N[C@@H](Cc2cn(Cc3ccc(Cl)cc3)cn2)C(=O)O)CC[C@@]1(C)C(=O)O`
Outgoing: 80 to 500 nM

Incoming: Looking for the measured IC50 of `CC1(C)[C@@H](C(=O)N[C@@H](Cc2ccc(NC(=O)c3c(Cl)cccc3Cl)cc2)C(=O)O)CC[C@@]1(C)C(=O)NCCC(=O)O` , can you help?
Outgoing: ≤ 80 nM

Incoming: Would you kindly share the measured IC50 for `CC(C)(C)c1ccc(C(=O)Nc2ccc(C[C@H](NC(=O)[C@H]3CC[C@@](C)(C(=O)O)C3(C)C)C(=O)O)cc2)c(Cl)c1` ?
Outgoing: 80 to 500 nM

Incoming: What IC50 value was documented for this molecule, CC1(C)[C@@H](C(=O)N[C@@H](Cc2ccc(NC(=O)c3c(Cl)cccc3Cl)cc2)C(=O)O)CC[C@@]1(C)C(=O)N[C@H](CCCCN)C(=O)O (relative stereo) ?
Outgoing: ≤ 80 nM

Incoming: // lookup IC50 for `CC1(C)[C@@H](C(=O)N[C@@H](Cc2ccc(NC(=O)c3c(Cl)cccc3Cl)cc2)C(=O)O)CC[C@@]1(C)C(=O)NO`
Outgoing: ≤ 80 nM

Incoming: Consider the molecule shown here: `CC1(C)[C@@H](C(=O)N[C@@H](Cc2ccc(C(=O)Nc3c(Cl)cc(Cl)cc3Cl)cc2)C(=O)O)CC[C@@]1(C)C(=O)O` What is its recorded IC50?
Outgoing: ≤ 80 nM

Incoming: Given `CC1(C)[C@@H](C(=O)N[C@@H](Cc2ccc(NC(=O)c3ccccc3O)cc2)C(=O)O)CC[C@@]1(C)C(=O)O` , state its recorded IC50.
Outgoing: 500 to 1000 nM

Incoming: Value lookup for IC50; key = `COC(=O)[C@H](Cc1ccc(NC(=O)c2cc(C(F)(F)F)ccc2C(F)(F)F)cc1)NC(=O)[C@H]1CC[C@@](C)(C(=O)O)C1(C)C`
Outgoing: ≤ 80 nM

Incoming: What value of IC50 has been recorded for this entry: `CC1(C)[C@@H](C(=O)N[C@@H](Cc2ccc(NC(=O)c3cccnc3Cl)cc2)C(=O)O)CC[C@@]1(C)C(=O)O`
Outgoing: 80 to 500 nM

Incoming: Data request, read-out IC50, for `CC1(C)[C@@H](C(=O)N[C@@H](Cc2ccc(O)c(NC(=O)c3c(Cl)cccc3Cl)c2)C(=O)O)CC[C@@]1(C)C(=O)O`
Outgoing: 80 to 500 nM

Incoming: Quick check: IC50 of `CC1(C)[C@@H](C(=O)N[C@@H](Cc2ccc(NC(=O)c3cccc([N+](=O)[O-])c3)cc2)C(=O)O)CC[C@@]1(C)C(=O)O` ?
Outgoing: ≤ 80 nM
